assay: Selectivity index, ratio of IC50 for cytotoxicity against human MRC5 cells to MIC90 for antibacterial activity against […] Staphylococcus aureus ATCC 700699; assay type: toxicity, cell-based; conditions: read-out: Selectivity Index
VALUE_KIND: selectivity ratio

1) Clc1ccc2[nH]cc(-c3ccc(-c4c[nH]c5ccc(Cl)cc45)nn3)c2c1
8
2) Clc1ccc2[nH]cc(-c3cnc(-c4c[nH]c5ccc(Cl)cc45)cn3)c2c1
32
3) Clc1ccc2[nH]cc(-c3cnc(-c4c[nH]c5ccc(Cl)cc45)nc3)c2c1
32
4) Brc1ccc2[nH]cc(-c3cnc(-c4c[nH]c5ccc(Br)cc45)cn3)c2c1
8
5) Clc1ccc2[nH]cc(-c3cccc(-c4c[nH]c5ccc(Cl)cc45)n3)c2c1
32
6) Clc1ccc2[nH]cc(-c3ccnc(-c4c[nH]c5ccc(Cl)cc45)n3)c2c1
32
